target: Vg9/Vd2 T cell receptor on SKW3_4 cells (UniProt Q99603); experiment: flow cytometry, DRC binding at 37°C on SKW3_4 cells expressing Vg9/Vd2
Sequence (Q99603 21-122, chain 1 of 2): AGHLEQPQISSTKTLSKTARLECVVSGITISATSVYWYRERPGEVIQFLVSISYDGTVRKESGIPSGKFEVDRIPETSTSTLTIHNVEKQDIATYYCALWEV
Sequence (A0JD36 20-115, chain 2 of 2, further chain): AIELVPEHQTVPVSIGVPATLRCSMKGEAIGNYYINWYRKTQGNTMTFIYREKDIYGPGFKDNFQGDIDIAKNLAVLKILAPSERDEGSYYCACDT
measured endpoint: Max. Activity (fold over background)

binder	Max. Activity (fold over background)
VG9B396 (antibody, human IgG1, lambda, V domains shown) VH: EVQLVESGPGLVQPSETLSLTCTVSGDSIRGYYWNWIRQPAGKGLEWIGRIFTTGNTNYNPSLKSRLTMSLDTSKNQFSLKLNSVTAADTAVYYCAREKWDSSSSALYFDFWGQGTLVTVSS VL: QSVLTQAPSVSGAPGQRVTISCTGSSSNIGADYDVKWYQQLPGTAPKLLIYGNTDRPSGVPDRFSGSKSGTSASLAITGLQAEDEADYYCQSYDSRLTGYVVFGGGTKLTVLG	155
VG9B411 (antibody, human IgG1, kappa, V domains shown) VH: EVQLVESGGGLVKPGGSLRLSCSASGFTFSNYDMNWVRQAPGKGLEWVSSISSSSSYIYYADSVKGRFTISRDNAKNSLYLQMNSLRAEDTAVYHCARDVGVTTDYYYYGMDVWGQGTTVTVSS VL: EIVMTQSPSSVSASVGDRVTITCRASQGINSWLAWYQQDPYKAPKLLIYAASTLQSGVPSRFGGRGSGTEFTLTISSLQPEDFAVYYCQQYNNWPRTFGQGTKVDIKR	19.1
VG9B201 (antibody, human IgG1, lambda, V domains shown) VH: QVTLKESGPTLVKPTQTLTLTCTFSGFSLTTHGVGVGWIRQPPRKALEWLALIYWNADKHYSPSLKSRLTITKDTSKNQVVLTMTHMDPVDTATYYCAHEGDWGHYFDFWGQGTLVTVSS VL: QLVLTQPPSVSAAPGQKVTISCSGSSSNIGNNDVSWYQQLPGTAPKLLIYDNNRRPSGIPDRFSGSKSGTSATLGITGLQTGDEADYYCETWDSSLSAIWVFGGGTKVTVLG	152
VG9B194 (antibody, human IgG1, lambda, V domains shown) VH: EVQLLESGAEVKKPGASVKVSCKASGYTFTGDYMHWVRQAPGQGLEWMGWINPNSGYTNNAEKFQGRVTMTRDTSISTAYMELSRLSSDDTAVYYCTRELDALDVWGQGTMVTVSS VL: QSVLTQPPSASGSPGQSVTISCTGTSSDVGGYNYVSWYQQHPGKAPKLMIYEVSKRPSGVPDRFSGSKSGNTASLTVSGLQAEDEADYYCNSYAGSNNFEVFGGGTKVTVLG	151

Next binder, Max. Activity (fold over background) to be filled in.
Lab note: measured Max. Activity (fold over background) of VG9B382 (antibody, human IgG1, lambda, V domains shown) VH: QVQLQESGPGLVKPSETLSLTCTVSGDSISGYYWNYIRQPAGKGLDWIGRIFTTGNTNYNPSLKSRVTMSVDTSKNQFSLKLTSVTAADTAVYYCARERWDSSSSALYFDYWGQGTLVTVSS VL: QSVLTQPPSVSGAPGQRVTISCTGSSSNIGADYDIKWYQQLPGTAPKLLIYGNSNRPSGVPDRFSGSKSGTSVSLAITGLQAEDEADYYCQSYDSSMSGYVVFGGGTKLTVLG was 177
